- target under test: Cholinesterase (Equus caballus, UniProt P81908)
- Sequence (P81908 whole entry): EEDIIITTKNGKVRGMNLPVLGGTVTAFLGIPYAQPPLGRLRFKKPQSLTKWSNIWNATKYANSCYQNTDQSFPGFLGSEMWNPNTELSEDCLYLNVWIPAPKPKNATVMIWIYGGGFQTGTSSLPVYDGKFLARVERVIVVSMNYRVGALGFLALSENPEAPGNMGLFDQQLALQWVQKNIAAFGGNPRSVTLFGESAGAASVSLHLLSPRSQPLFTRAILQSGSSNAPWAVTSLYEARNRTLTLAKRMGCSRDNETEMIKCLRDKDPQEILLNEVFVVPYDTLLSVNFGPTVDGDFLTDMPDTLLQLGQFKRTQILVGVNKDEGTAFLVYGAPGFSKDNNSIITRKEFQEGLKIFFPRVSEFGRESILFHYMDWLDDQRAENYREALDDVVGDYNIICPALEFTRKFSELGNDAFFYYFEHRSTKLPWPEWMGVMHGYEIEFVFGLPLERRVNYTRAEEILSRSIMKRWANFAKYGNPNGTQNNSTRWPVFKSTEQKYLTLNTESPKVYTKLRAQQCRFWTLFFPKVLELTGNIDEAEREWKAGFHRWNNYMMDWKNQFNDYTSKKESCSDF
- run description: Inhibition of equine serum BuChE using butyrylthiocholine iodide as substrate preincubated for 30 mins followed by substrate addition and measured for 20 mins at 1 min interval by Ellman's method
quantity: IC50

molecule | result
O=C1CN(S(=O)(=O)c2cccc(Cl)c2)C(=O)CN1S(=O)(=O)c1cccc(Cl)c1 | 197 nM
O=C1C(Cc2ccccc2)N(S(=O)(=O)c2ccc(O)cc2)C(=O)C(Cc2ccccc2)N1S(=O)(=O)c1ccc(O)cc1 (centres undefined) | 199 nM
O=C1CN(S(=O)(=O)c2ccc(Cl)cc2)C(=O)CN1S(=O)(=O)c1ccc(Cl)cc1 | 180 nM
Cc1ccc(S(=O)(=O)N2CC(=O)N(S(=O)(=O)c3ccc(C)cc3)CC2=O)cc1 | > 200 nM

====

- run description: Permeability of the compound at 25 ug/ml after 18 hrs by PAMPA-BBB assay
- Type: ADME
- condition parameters: read-out: permeability

compound | result unit | Papp at 18 h, 25 ug/ml
Nc1ccc(S(=O)(=O)N2C(=O)C(c3ccccc3)N(S(=O)(=O)c3ccc(N)cc3)C(=O)C2c2ccccc2)cc1 (centres undefined) | ×10⁻⁶ cm/s | 5.53
O=C1C(c2ccccc2)N(S(=O)(=O)c2cccc(Br)c2)C(=O)C(c2ccccc2)N1S(=O)(=O)c1cccc(Br)c1 (centres undefined) | ×10⁻⁶ cm/s | 9.45
O=C1C(c2ccccc2)N(S(=O)(=O)c2ccc([N+](=O)[O-])cc2)C(=O)C(c2ccccc2)N1S(=O)(=O)c1ccc([N+](=O)[O-])cc1 (centres undefined) | ×10⁻⁶ cm/s | 4.63
O=C1CN(S(=O)(=O)c2ccc(Br)cc2)C(=O)CN1S(=O)(=O)c1ccc(Br)cc1 | ×10⁻⁶ cm/s | 8.87

====

- target under test: Acetylcholinesterase (Electrophorus electricus, UniProt O42275)
- Sequence (O42275 whole entry): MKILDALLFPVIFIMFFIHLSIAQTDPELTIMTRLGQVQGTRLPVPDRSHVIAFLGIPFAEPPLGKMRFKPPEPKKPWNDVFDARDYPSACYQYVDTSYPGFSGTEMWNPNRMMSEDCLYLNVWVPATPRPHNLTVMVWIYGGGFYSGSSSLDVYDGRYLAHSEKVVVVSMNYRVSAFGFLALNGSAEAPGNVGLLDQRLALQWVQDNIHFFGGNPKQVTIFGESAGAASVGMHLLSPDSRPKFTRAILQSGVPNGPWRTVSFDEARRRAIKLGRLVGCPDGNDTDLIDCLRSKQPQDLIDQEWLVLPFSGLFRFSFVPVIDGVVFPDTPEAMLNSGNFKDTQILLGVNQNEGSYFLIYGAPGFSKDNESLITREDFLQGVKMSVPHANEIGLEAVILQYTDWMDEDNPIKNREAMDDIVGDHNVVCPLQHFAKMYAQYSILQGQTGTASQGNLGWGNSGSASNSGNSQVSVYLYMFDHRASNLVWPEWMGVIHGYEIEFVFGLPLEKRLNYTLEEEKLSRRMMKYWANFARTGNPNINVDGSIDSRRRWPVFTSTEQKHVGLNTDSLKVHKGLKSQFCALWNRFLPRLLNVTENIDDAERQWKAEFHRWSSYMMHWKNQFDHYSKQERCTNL
quantity: Ki

molecule | quantity | result
O=C1C(c2ccccc2)N(S(=O)(=O)c2ccc(Cl)cc2)C(=O)C(c2ccccc2)N1S(=O)(=O)c1ccc(Cl)cc1 (stereo unspecified) | Ki | 7 nM

====

- target under test: Cholinesterase (Equus caballus, UniProt P81908)
- run description: Inhibition of equine serum BuChE using butyrylthiocholine iodide as substrate preincubated for 30 mins followed by substrate addition and measured for 20 mins at 1 min interval by Ellman's method
pIC50: −log10 of the molar value.

molecule | limit operator | pIC50
O=C1C(c2ccccc2)N(S(=O)(=O)c2cccc(Br)c2)C(=O)C(c2ccccc2)N1S(=O)(=O)c1cccc(Br)c1 (stereo not given) | = | 6.72
O=C1C(c2ccccc2)N(S(=O)(=O)c2ccc([N+](=O)[O-])cc2)C(=O)C(c2ccccc2)N1S(=O)(=O)c1ccc([N+](=O)[O-])cc1 (stereo not given) | = | 6.75
Nc1ccc(S(=O)(=O)N2C(=O)C(c3ccccc3)N(S(=O)(=O)c3ccc(N)cc3)C(=O)C2c2ccccc2)cc1 (stereo not given) | < | 6.70
CCCCS(=O)(=O)N1CC(=O)N(S(=O)(=O)CCCC)CC1=O | < | 6.70
O=C1C(Cc2ccccc2)N(S(=O)(=O)c2ccc([N+](=O)[O-])cc2)C(=O)C(Cc2ccccc2)N1S(=O)(=O)c1ccc([N+](=O)[O-])cc1 (stereo not given) | = | 6.79
Cc1cccc(S(=O)(=O)N2C(=O)C(c3ccccc3)N(S(=O)(=O)c3cccc(C)c3)C(=O)C2c2ccccc2)c1 (stereo not given) | < | 6.70
Nc1ccc(S(=O)(=O)N2CC(=O)N(S(=O)(=O)c3ccc(N)cc3)CC2=O)cc1 | < | 6.70
O=C1C(c2ccccc2)N(S(=O)(=O)c2ccc(O)cc2)C(=O)C(c2ccccc2)N1S(=O)(=O)c1ccc(O)cc1 (stereo not given) | < | 6.70
O=C1CN(S(=O)(=O)c2ccc(F)cc2)C(=O)CN1S(=O)(=O)c1ccc(F)cc1 | = | 6.73
O=C1C(Cc2ccccc2)N(S(=O)(=O)c2ccc(Cl)cc2)C(=O)C(Cc2ccccc2)N1S(=O)(=O)c1ccc(Cl)cc1 (stereo not given) | = | 6.80
O=C1C(c2ccccc2)N(S(=O)(=O)c2ccc(Cl)cc2)C(=O)C(c2ccccc2)N1S(=O)(=O)c1ccc(Cl)cc1 (stereo not given) | = | 6.79
O=C1CN(S(=O)(=O)c2ccc(Br)cc2)C(=O)CN1S(=O)(=O)c1ccc(Br)cc1 | = | 6.72
Cc1ccc(S(=O)(=O)N2C(=O)C(c3ccccc3)N(S(=O)(=O)c3ccc(C)cc3)C(=O)C2c2ccccc2)cc1 (stereo not given) | < | 6.70
O=C1C(c2ccccc2)N(S(=O)(=O)c2ccc(Br)cc2)C(=O)C(c2ccccc2)N1S(=O)(=O)c1ccc(Br)cc1 (stereo not given) | = | 6.74
O=C1C(Cc2ccccc2)N(S(=O)(=O)c2ccc(Br)cc2)C(=O)C(Cc2ccccc2)N1S(=O)(=O)c1ccc(Br)cc1 (stereo not given) | = | 6.74
O=C1C(Cc2ccccc2)N(S(=O)(=O)c2cccc(Br)c2)C(=O)C(Cc2ccccc2)N1S(=O)(=O)c1cccc(Br)c1 (stereo not given) | = | 6.72
O=C1CN(S(=O)(=O)c2ccccc2)C(=O)CN1S(=O)(=O)c1ccccc1 | < | 6.70
O=C1C(Cc2ccccc2)N(S(=O)(=O)c2cccc(O)c2)C(=O)C(Cc2ccccc2)N1S(=O)(=O)c1cccc(O)c1 (stereo not given) | < | 6.70
CCCS(=O)(=O)N1CC(=O)N(S(=O)(=O)CCC)CC1=O | < | 6.70
COc1ccc(S(=O)(=O)N2CC(=O)N(S(=O)(=O)c3ccc(OC)cc3)CC2=O)cc1 | < | 6.70
